System: RBL-2H3
test.description: Intracellular calcium increasing activity in RBL2H3 (FLIPR)
Type: cell-based
Design: unit not given here
measurement.context: RBL2H3, 1 μM
measured.metric: maximum activity in the calcium increasing effect
When you answer, write just the number.

The molecule CC(C)C[C@H](NC(=O)[C@H](C)NC(=O)[C@H](Cc1c[nH]c2ccccc12)NC(=O)[C@H](CCCCN)NC(=O)[C@H](CC(N)=O)NC(=O)[C@H](Cc1c[nH]c2ccccc12)NC(=O)[C@H](CCCCN)NC(=O)[C@H](CCCCN)NC(=O)[C@H](CCCNC(=N)N)NC(=O)[C@@H](N)Cc1ccccc1)C(=O)N[C@@H](CO)C(=O)N[C@@H](CCCNC(=N)N)C(N)=O on RBL-2H3: maximum activity in the calcium increasing effect was 44

The reported measurements were obtained from patent US20100068208A1.
